Answer each item with its documented melting point.

Request: Give reported melting point value for CCOCc1nc2c(N)nc3c(c2n1NCCCNC(=O)C(C)C)CCCC3
Result: 163 to 165 °C

Request: Give reported melting point value for ClC(Cl)(Cl)c1nnc(Br)s1
Result: 39 °C

Request: Give reported melting point value for CCCCn1c(=O)c2c(NC)n[nH]c2n(Cc2ccc(Cl)cc2)c1=O
Result: 292 to 294 °C

Request: Give reported melting point value for CCCCCCCCCCCCCCCCCCN=Cc1ccc(O)cc1
Result: 101 °C

Request: Give reported melting point value for CCOC(=O)c1n[nH]c2c(=O)[nH]c3cc(Cl)ccc3c(=O)c12
Result: 290 °C

Request: Give reported melting point value for CC(C)NC(=O)c1nc(-c2ccccc2)c(-c2ccc(=O)n(C(C)C)n2)s1
Result: 131 to 132 °C

Request: Give reported melting point value for CN(CCO)c1nccc(-c2ccncc2)n1
Result: 191 to 195 °C

Request: Give reported melting point value for CCOC(=O)C1=C(C)NC(c2csc(C)n2)=NC1c1cccc(O)c1 (stereo not given)
Result: 175 to 178 °C

Request: Give reported melting point value for CCn1c(=O)c2c(nc(/C=C/c3ccc(OC)c(OC)c3OC)n2C)n(CC)c1=O
Result: 153 to 154 °C

Request: Give reported melting point value for CCOC(=O)C=Cc1ccc(CCNS(=O)(=O)CCc2ccccc2)cc1
Result: 98 to 99 °C

* * *

Measured property: melting point

Request: Give reported melting point value for CC(=S)c1ccc(Cc2ccc(C(C)=S)cc2)cc1
Result: 54 to 55 °C

Request: Give reported melting point value for CC(C)(COc1ccc(Cl)cc1)C(O)C(Oc1ccc(Cl)cc1)n1ccnc1 (stereo not drawn)
Result: 142 to 144 °C

Request: Give reported melting point value for Cc1nc2ccc(NCCCN3CCC(OC(c4ccccc4)c4ccccc4)CC3)nn2c1C(=O)O
Result: 101 to 103 °C

* * *

Answer each item with its documented melting point.

Request: Give reported melting point value for O=C(CCl)N1CC=C(c2cccc(C(F)(F)F)c2)n2ncc(Br)c21
Result: 128 to 130 °C

Request: Give reported melting point value for CCOC(=O)C(=O)Nc1c([N+](=O)[O-])cc(Cl)cc1C(F)(F)F
Result: 100 to 101 °C

Request: Give reported melting point value for Cn1c(=S)n(C)c(=O)n(-c2ccc(F)cc2F)c1=O
Result: 156 to 159 °C

Request: Give reported melting point value for COc1ccc(-c2nc3cc(OC)cc(C#N)c3o2)cc1
Result: 180 to 183 °C

Request: Give reported melting point value for CC(=N)Nc1cccc(CNO)c1
Result: 214 to 215 °C

Request: Give reported melting point value for CC(=O)OCC(C)(C)C(Cl)CC(Cl)(Cl)Cl (stereo unspecified)
Result: 56 to 58 °C

* * *

Answer each item with its documented melting point.

Request: Give reported melting point value for OC(CSc1ncccn1)CN1CCN(C(c2ccc(F)cc2)c2ccc(F)cc2)CC1 (stereo not drawn)
Result: 75 to 76 °C

Request: Give reported melting point value for O=S(Cc1ccc(Cl)c(Cl)c1)c1nc2cnccc2[nH]1 (stereo not drawn)
Result: 198 to 201 °C

Request: Give reported melting point value for CCOCCOc1ccc(-c2ccc3c(c2)C=C(C(=O)Nc2ccc(CN(C)C4CCOCC4)cc2)CCS3(=O)=O)cc1OCC
Result: 164 to 168 °C
